This collection of values is drawn from paper PMC6056499.

Target: β-Klotho (Homo sapiens, UniProt Q86Z14)
Construct: the ECD of human β-Klotho (aa1–992) fused with a 6 × His tag at the C-terminus; made in house
Sequence (Q86Z14 1-992): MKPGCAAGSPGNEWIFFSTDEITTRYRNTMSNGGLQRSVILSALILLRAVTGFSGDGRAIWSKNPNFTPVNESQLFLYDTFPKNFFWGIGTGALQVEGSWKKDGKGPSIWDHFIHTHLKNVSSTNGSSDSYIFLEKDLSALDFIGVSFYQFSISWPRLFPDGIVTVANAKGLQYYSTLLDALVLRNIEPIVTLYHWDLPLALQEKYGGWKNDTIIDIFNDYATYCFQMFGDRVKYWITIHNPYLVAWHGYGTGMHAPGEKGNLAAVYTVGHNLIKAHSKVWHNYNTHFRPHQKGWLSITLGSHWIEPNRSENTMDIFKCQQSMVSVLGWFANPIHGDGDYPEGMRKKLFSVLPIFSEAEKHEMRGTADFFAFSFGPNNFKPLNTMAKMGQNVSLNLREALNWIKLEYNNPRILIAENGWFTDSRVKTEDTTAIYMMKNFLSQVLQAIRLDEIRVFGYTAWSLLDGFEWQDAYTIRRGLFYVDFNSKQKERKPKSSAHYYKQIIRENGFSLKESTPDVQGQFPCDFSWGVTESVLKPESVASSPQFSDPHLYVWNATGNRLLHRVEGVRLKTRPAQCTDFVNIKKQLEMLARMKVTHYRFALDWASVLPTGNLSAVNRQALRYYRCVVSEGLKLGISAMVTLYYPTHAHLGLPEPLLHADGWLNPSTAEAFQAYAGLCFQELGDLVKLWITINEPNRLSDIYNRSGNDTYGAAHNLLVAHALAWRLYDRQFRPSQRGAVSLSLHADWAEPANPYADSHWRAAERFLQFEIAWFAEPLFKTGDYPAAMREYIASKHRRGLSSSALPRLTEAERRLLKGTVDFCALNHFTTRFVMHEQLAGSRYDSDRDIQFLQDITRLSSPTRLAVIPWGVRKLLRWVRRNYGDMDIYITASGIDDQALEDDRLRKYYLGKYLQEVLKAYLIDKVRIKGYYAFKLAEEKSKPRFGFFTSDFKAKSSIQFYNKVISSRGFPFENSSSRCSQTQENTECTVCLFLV
Assay: AlphaScreen competition binding assay (inhibition of β-Klotho binding to biotinylated FGF19 or FGF21)
Details: Suppl Fig S6A, 20 nM β-Klotho ECD 6×His, 40 nM biotinylated human FGF21, d.n.c. = did not converge, read-out: IC50, competition with FGF21 (FGF21 C-terminal peptides)
No end group written: not given here.
test_readout: IC50 (nM)
Just the number please, in nM, no unit attached.

Which measured IC50 value corresponds to PQPPDVGSSDPLSMVGPSQGASPSYAS [203R-A] ?
7.3
